Study target: recombinant full-length Pfs48/45 (Plasmodium falciparum 3D7, UniProt Q8I6T1)
Sequence (Q8I6T1 28-428): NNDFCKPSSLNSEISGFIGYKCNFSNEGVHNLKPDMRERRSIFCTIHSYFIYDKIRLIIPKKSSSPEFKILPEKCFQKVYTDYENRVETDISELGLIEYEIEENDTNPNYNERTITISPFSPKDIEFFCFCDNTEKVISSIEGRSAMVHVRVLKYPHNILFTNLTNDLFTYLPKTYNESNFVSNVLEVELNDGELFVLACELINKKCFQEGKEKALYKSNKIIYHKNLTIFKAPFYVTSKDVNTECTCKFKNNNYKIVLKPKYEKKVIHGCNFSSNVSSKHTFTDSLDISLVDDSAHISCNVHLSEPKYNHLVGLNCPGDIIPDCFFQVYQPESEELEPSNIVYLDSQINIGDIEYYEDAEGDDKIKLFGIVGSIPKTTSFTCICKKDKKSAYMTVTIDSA
Assay remarks: ELISA
Particulars: both partners purified

Binder	binding result
RUPA-92 (antibody, V domains shown, human IgG1; source: recombinant human IgG1, 293T (Protein A purified) or GenScript) VH: QVQLVQSGAEVKKPGASVKVSCKASGYTFTSHDIIWVRQATGQGLEWMGWMNPNTGDKGYAQKFQGRVTMTRSMSISTAYMELRSLRSEDTAVYYCARGVGTYRGSGGWFDPWGPGTLITVSS VL: QSALTQPRSVSGSPGQSVTISCTGTSGDVGGFNYVSWYQQHPGKTPRLMLYHVTKRPSGVPDRFSGSKSGNTASLTISGLQADDEADYYCCSYAGNYIEIFGGGTKLTVL	binds
RUPA-151 (antibody, V domains shown, human IgG1; source: recombinant human IgG1, 293T (Protein A purified) or GenScript) VH: QVQLVQSGAEVKKTGASVKVSCKASGYTFTSHDIIWVRQAAGQGLEWMGWLNPNTGKKGYVEKFQGRVMLTRNMSTGTAYMELSSLRSDDSAIYYCARGVGTYHGSEGWLDPWGQGTLVTVSS VL: QSVLTQPPSASETPGQGVTISCSGSSSNVGSNAVNWYQQLPGRAPKLLMYNTNQRPSGVPDRFSGSKSGTSASLAISGLRSADEADYYCAAWDDSLKRGVFGGGTKLTVL	binds
RUPA-156 (antibody, V domains shown, human IgG1; source: recombinant human IgG1, 293T (Protein A purified) or GenScript) VH: EVQLVESGGGLVQPGGSLRLSCVVSGFTFSRYSMYWVRQAPGKGPEWVSYIDSTGTTIYYADSVKGRFTISRDNAKSSLSLQMSSLRDDDRGVYYCARDGRKDSGSFLDHWGQGTLVTVSS VL: DIQMTQSPSSLSASVGDRVTITCRASQSISEWLAWYQQKPGKAPRLLIYQASSLQSGVPSRFSGSGSGTEFTLTISSLQSDDFATYYCQQFDTYWTFGQGTKVEIK	binds
